- System: CCRIS mutagenicity, Ames/micronucleus/aberration tests
- TEST METHOD NOTES: CCRIS mutagenicity studies
- APPLIED CONDITIONS: Test System: AMES SALMONELLA TYPHIMURIUM; Strain/Indicator: TA1535; Metabolic Activation: RAT, LIVER, S-9, TETRACHLOROBIPHENYL; Method: PREINCUBATION
Calls of active or inactive are those of the source. How the calls were made is not given here.
Tick one outcome: yes (1) (active), no (0) (inactive)

[
  {
    "SAMPLE SMILES": "Nc1cccc2nc3ccccc3cc12",
    "QUALITATIVE LABEL": "no (0)"
  },
  {
    "SAMPLE SMILES": "Nc1ccc2cc3ccccc3nc2c1",
    "QUALITATIVE LABEL": "yes (1)"
  }
]

Prompt: Each compound tested received a call. Report the one for Nc1ccc2nc3ccccc3c(N)c2c1 .
Response: no (0)

Prompt: Subsequent entry: C[n+]1c2ccccc2cc2c(N)cccc21
Response: no (0)
